- test-system: Epidermal growth factor receptor (Homo sapiens, UniProt P00533, L858R)
- Sequence (P00533 25-1210 L858R limits assumed): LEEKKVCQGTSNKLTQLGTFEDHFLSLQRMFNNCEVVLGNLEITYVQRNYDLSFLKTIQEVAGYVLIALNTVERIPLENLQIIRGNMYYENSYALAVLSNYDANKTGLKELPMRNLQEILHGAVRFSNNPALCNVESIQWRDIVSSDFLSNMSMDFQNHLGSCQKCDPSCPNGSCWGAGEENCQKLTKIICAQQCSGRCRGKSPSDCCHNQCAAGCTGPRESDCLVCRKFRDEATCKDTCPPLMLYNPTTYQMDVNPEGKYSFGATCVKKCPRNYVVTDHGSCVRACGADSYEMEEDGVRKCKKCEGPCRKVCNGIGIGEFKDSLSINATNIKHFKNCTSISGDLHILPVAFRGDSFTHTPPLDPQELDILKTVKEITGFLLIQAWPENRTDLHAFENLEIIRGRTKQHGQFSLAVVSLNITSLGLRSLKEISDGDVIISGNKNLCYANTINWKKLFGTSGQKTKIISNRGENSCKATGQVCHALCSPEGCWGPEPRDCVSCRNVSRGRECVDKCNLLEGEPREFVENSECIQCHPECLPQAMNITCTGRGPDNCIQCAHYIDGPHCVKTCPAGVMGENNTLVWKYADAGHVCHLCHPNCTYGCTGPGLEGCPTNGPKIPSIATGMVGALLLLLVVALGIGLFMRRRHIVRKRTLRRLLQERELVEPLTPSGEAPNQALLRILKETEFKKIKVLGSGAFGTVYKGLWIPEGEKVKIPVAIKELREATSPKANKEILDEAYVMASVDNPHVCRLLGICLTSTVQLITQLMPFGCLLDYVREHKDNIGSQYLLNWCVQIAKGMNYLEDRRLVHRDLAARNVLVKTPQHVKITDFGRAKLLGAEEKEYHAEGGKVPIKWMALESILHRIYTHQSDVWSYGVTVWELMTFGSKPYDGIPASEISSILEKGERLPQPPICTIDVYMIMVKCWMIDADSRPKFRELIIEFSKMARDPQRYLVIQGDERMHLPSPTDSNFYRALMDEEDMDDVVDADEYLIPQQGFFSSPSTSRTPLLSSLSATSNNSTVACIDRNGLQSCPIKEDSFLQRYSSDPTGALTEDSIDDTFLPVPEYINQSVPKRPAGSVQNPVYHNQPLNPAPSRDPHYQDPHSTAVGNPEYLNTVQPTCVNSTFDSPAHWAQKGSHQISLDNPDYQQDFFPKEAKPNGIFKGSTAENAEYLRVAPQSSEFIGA
- method-description: Inhibition of human N-terminal GST-tagged EGFR L858R mutant (696 to 1022 residues) expressed in Sf21 insect cells by HTRF assay
Overview of reported pIC50 across a group of compounds:
Units for pIC50: none; it is -log10 of a concentration expressed in mol/L.

O=C1c2cc(-c3ccc(N4CCNCC4)cc3)ccc2Nc2ccc(F)cc2N1Cc1ccccc1 : 6.82

Answer with reported pIC50 of `CN1CCN(c2ccc(Oc3ccc4c(c3)C(=O)N(Cc3ccccc3)c3cc(F)ccc3N4)cc2)CC1`
6.81

###

- test-system: Mast/stem cell growth factor receptor Kit (Homo sapiens, UniProt P10721, V559D/V654A)
- method-description: Inhibition of recombinant human His-tagged KIT V559D/V654A double mutant expressed in baculovirus expression system at 10 uM by kinomescan assay
measured-attribute: Kd

Answer with reported Kd of `CN1CCN(c2ccc(Oc3ccc4c(c3)C(=O)N(Cc3ccccc3)c3cc(F)ccc3N4)cc2)CC1`
> 10 µM

###

Overview of reported IC50 across a group of compounds:
- test-system: Epidermal growth factor receptor (Homo sapiens, UniProt P00533)
- Sequence (P00533 whole entry, the tested form may be a part): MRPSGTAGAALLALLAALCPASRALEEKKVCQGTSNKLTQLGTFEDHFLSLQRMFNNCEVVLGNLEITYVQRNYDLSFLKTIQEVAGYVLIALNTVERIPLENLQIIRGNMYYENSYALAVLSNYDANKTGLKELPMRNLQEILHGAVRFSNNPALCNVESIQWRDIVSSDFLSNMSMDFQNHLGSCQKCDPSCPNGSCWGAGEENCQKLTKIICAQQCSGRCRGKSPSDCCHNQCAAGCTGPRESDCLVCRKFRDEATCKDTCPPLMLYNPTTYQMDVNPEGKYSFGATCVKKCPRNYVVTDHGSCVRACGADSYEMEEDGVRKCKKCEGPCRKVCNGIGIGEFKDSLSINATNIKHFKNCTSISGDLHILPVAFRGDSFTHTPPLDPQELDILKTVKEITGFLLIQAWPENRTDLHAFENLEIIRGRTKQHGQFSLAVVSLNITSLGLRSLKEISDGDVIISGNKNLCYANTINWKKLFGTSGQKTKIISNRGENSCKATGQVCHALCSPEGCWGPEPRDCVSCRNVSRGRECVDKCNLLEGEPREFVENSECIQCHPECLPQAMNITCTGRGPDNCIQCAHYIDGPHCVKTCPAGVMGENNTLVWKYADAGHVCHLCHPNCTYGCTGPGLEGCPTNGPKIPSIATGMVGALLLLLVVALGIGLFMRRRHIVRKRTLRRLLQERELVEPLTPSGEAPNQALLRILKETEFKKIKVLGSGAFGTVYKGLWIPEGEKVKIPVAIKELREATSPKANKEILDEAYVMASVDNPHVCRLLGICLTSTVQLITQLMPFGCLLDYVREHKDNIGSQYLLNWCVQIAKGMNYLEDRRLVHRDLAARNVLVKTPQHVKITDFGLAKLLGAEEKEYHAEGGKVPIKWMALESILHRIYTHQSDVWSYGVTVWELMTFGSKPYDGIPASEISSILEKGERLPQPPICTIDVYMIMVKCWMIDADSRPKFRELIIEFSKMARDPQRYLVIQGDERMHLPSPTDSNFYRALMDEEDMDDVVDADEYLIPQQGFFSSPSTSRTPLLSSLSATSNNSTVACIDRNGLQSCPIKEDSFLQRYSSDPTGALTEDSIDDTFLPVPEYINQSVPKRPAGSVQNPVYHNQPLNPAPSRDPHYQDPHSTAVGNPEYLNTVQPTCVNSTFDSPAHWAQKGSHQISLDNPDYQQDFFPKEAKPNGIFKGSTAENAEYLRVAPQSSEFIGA
- method-description: Inhibition of human N-terminal GST-tagged EGFR (696 to 1022 residues) expressed in Sf21 insect cells by HTRF assay

CN1CCN(c2ccc(Oc3ccc4c(c3)C(=O)N(Cc3ccccc3)c3cc(F)ccc3N4)cc2)CC1 : > 1000 nM

Answer with reported IC50 of `O=C1c2cc(-c3ccc(N4CCNCC4)cc3)ccc2Nc2ccc(F)cc2N1Cc1ccccc1`
> 1000 nM

###

- test-system: Epidermal growth factor receptor (Homo sapiens, UniProt P00533, L858R/T790M)
- Sequence (P00533 25-1210 T790M/L858R limits assumed): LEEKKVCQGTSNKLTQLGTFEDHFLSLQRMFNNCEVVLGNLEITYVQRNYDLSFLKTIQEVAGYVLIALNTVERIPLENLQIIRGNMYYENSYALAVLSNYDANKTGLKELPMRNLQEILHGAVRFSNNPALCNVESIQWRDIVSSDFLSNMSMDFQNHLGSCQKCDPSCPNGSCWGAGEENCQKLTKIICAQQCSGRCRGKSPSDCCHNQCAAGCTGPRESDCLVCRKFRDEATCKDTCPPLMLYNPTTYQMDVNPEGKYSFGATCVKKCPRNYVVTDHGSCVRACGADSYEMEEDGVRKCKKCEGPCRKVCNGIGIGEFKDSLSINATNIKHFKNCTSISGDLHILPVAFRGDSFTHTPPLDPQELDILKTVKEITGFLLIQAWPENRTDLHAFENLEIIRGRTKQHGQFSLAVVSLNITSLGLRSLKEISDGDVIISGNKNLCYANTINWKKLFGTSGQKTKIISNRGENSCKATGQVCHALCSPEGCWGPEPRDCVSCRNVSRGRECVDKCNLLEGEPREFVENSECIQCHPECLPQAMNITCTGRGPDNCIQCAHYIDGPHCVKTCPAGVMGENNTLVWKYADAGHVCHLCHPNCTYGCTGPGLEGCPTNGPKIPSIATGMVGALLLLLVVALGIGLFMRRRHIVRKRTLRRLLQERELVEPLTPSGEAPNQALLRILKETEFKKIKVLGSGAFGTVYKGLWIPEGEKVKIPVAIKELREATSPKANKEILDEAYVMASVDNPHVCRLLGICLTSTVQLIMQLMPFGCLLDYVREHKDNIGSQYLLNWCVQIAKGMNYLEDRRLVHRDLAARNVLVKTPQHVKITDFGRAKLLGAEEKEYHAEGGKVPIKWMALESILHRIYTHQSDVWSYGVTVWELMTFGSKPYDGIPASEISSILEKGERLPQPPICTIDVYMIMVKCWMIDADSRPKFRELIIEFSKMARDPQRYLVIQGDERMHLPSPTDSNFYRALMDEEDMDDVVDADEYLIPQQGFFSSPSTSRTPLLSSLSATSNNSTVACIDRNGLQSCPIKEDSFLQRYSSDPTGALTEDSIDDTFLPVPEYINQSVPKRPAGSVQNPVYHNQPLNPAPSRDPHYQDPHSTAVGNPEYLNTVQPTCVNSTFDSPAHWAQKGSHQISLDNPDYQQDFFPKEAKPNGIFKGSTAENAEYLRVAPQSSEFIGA
- method-description: Inhibition of human N-terminal GST-tagged EGFR double T790M/L858R mutant (696 to 1022 residues) expressed in Sf21 insect cells by HTRF assay
measured-attribute: IC50
The answer consists of two parts: a number and, after it, its unit.

O=C1c2cc(-c3ccc(N4CCNCC4)cc3)ccc2Nc2ccc(F)cc2N1Cc1ccccc1 : 0.031 µM

Proceeding to the next molecule to report its IC50.
Answer with reported IC50 of `CN1CCN(c2ccc(Oc3ccc4c(c3)C(=O)N(Cc3ccccc3)c3cc(F)ccc3N4)cc2)CC1`
0.011 µM

###

- test-system: Epidermal growth factor receptor (Homo sapiens, UniProt P00533, C797S/L858R/T790M)
- Sequence (P00533 25-1210 T790M/C797S/L858R limits assumed): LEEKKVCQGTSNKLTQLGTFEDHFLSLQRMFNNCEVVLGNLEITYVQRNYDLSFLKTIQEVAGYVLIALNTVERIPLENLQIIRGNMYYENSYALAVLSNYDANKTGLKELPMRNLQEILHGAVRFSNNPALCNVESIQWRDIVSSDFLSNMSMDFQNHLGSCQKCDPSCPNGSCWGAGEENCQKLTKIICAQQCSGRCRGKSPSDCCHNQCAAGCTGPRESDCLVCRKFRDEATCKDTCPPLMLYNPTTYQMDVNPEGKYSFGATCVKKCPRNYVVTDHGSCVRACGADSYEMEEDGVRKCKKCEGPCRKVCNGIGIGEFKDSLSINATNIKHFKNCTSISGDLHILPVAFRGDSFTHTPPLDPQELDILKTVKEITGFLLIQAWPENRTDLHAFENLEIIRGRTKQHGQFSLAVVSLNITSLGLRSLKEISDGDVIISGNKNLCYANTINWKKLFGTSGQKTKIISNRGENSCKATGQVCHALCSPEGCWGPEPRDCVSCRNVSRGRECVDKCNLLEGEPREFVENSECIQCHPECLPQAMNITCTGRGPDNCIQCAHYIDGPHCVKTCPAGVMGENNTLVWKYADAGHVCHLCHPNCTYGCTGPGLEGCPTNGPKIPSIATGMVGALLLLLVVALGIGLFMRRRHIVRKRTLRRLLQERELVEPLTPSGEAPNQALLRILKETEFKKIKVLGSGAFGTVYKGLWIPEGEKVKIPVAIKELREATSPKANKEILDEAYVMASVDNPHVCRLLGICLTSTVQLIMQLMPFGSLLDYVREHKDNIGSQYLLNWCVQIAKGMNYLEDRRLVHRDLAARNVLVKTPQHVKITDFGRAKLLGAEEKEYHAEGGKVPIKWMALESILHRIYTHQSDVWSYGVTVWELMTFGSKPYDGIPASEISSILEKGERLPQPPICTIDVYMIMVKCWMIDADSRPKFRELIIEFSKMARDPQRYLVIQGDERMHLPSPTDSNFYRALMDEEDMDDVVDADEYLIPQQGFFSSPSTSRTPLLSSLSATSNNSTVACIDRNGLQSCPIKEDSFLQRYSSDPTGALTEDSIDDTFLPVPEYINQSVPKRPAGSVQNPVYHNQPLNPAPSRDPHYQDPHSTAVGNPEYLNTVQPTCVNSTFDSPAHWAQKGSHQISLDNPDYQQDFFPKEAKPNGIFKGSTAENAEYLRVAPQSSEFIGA
- method-description: Inhibition of human N-terminal GST-tagged EGFR triple T790M/L858R/C797S mutant (696 to 1022 residues) expressed in Sf21 insect cells by HTRF assay
Overview of reported IC50 across a group of molecules:
Dear colleague, please return just the value in µM, with no unit written.

CN1CCN(c2ccc(Oc3ccc4c(c3)C(=O)N(Cc3ccccc3)c3cc(F)ccc3N4)cc2)CC1 : 0.013

Proceeding to the next molecule to report its IC50.
Answer with reported IC50 of `O=C1c2cc(-c3ccc(N4CCNCC4)cc3)ccc2Nc2ccc(F)cc2N1Cc1ccccc1`
0.019
